Entries and their polymerase ribozyme fitness (log ratio) values follow.
B1: TPR t1 (parent)
chain: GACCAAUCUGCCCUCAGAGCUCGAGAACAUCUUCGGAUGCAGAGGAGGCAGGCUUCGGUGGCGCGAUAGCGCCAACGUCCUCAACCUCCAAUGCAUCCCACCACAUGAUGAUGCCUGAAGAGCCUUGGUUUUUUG

Variants of: B1
TEST DESCRIPTION: polymerase ribozyme fitness, log enrichment relative to wild type (log ratio); higher = more active; in vitro selection for triplet polymerase activity
Lab note: record just the number, no unit beside it.

Observe how each entry below is paired with its result.
GACCAAUCUGCCCUCAGAGCUCGAGAACAUCUUCGGAUGCAGAGGAGGCAGGCUUCGGUGGCGCGAUAGCGCCAACGUCCUCAACCUCCAAUGCAUCUCACCACAUGAUGAUGCCUAAAGAGCCUUGGUUUUUUG [C98U G117A] ... -2.99
GACCAAUCUGCCCUCCGAGCUCGAGAACAUCUUCGGAUGCAGAGGAGGAAGGCUUCGGUGGCGCGAUAGCGCCCACGUCCUCAACCUACAAUGCAUCCCACCACAUGAUGAUGCCCGAAGAGCCUUGGUUUUUUG [A16C C49A A74C C88A U116C] ... -3.06

Below: the item to evaluate.
Query polymerase ribozyme fitness (log ratio) for GACCAAUCUGGCCUCAGAACUCGAGAACAUCUUCGGAUGCAGAGGAGGCAGGUUUCGGUGGCGCGAUAGCGCCAACGUCCUCAACCUCAAAUGCAUCCCACCACAUGAUGAUGCCUGAAGAGCCUUGGUUUUUUG [C11G G19A C53U C89A]
-2.96
